Source: patent US20240124408A1

# target entity: human TRPM8 (Homo sapiens, UniProt Q7Z2W7)
# Construct: expressed in transfected cells; host or cells: CHO (p658 mammalian expression vector)
# Sequence (Q7Z2W7 whole entry): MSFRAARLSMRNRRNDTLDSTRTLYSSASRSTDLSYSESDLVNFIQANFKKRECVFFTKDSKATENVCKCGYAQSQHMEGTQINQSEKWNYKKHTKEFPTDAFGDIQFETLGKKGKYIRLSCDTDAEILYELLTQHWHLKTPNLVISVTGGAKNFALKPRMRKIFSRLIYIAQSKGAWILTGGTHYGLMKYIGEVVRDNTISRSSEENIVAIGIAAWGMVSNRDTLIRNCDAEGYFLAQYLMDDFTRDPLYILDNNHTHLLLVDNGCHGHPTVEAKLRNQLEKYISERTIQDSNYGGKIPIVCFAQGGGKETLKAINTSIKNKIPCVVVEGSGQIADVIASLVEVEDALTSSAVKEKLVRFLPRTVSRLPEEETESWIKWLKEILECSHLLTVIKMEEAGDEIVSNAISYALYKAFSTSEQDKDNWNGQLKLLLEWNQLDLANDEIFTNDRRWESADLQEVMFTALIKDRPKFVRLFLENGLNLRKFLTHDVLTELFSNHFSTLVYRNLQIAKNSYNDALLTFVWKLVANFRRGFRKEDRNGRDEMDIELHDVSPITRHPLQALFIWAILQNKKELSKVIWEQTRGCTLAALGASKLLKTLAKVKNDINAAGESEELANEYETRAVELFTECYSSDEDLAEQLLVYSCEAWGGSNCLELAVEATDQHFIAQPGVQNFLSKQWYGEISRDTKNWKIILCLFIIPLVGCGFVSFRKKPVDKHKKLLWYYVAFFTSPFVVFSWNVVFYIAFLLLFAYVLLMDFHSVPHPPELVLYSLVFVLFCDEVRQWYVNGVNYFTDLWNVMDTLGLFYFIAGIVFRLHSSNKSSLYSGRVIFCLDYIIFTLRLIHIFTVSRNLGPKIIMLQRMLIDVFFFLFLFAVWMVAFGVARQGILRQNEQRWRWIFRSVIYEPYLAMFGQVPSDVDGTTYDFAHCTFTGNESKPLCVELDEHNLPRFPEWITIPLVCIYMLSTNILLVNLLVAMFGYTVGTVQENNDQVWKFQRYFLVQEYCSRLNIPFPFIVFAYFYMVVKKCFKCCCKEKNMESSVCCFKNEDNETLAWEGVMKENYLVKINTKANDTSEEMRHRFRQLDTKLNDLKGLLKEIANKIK
# measurement protocol: In vitro human TRPM8 fluorescence calcium flux assay (recombinant CHO cells, Fluo4-AM, FDSS6000)
# Format: cell-based
# reported conditions: recombinant CHO cells expressing human TRPM8; menthol-related EC50, normalized to 100 μM menthol
Structures can show the parent of a compound that is named as a salt.
Reported EC50 by item:
measurement name: EC50 (µM)

>>> print(df.to_string())
                                    molecule  measurement_name  numeric_result
 0  CC(C)[C@@H]1CC[C@@H](C)C[C@@]1(O)C(=O)NCC(=O)c1c[nH]c2ccccc12 [Example 150]              EC50           0.004
 1  CC(C)[C@@H]1CC[C@@H](C)C[C@@]1(O)C(=O)NCc1cccc(CO)c1 [Example 161]              EC50           0.882
 2  CC(C)[C@@H]1CC[C@@H](C)C[C@@]1(O)C(=O)NCC(O)c1cccc(CO)c1 (some centres unmarked) [Example 37]              EC50           0.017
 3  CC(C)[C@@H]1CC[C@@H](C)C[C@@]1(O)C(=O)NCC(O)c1ccc(F)cc1 (some centres unmarked) [Example 158]              EC50           0.007
 4  CC(C)[C@@H]1CC[C@@H](C)C[C@@]1(O)C(=O)N[C@H](CCO)c1ccccc1 [Example 86]              EC50           0.547
 5  CC(C)[C@@H]1CC[C@@H](C)C[C@@]1(O)C(=O)NCCc1ccc(CO)cc1 [Example 109]              EC50          0.0224
 6  CC(C)[C@@H]1CC[C@@H](C)C[C@@]1(O)C(=O)NCCc1ccccc1C(=O)OCCN [Example 13, hydrochloride]              EC50           0.001
 7  CC(C)[C@@H]1CC[C@@H](C)C[C@@]1(O)C(=O)N[C@H]1COc2ccccc2C1 [Example 95]              EC50          0.0036
 8  CC(C)[C@@H]1CC[C@@H](C)C[C@@]1(O)C(=O)NCC1COc2ccccc21 (some centres unmarked) [Example 162]              EC50          0.0053
 9  Cc1ccc(CCNC(=O)[C@]2(O)C[C@H](C)CC[C@H]2C(C)C)cc1 [Example 60]              EC50          0.0435
10  CC(C)[C@@H]1CC[C@@H](C)C[C@@]1(O)C(=O)NC[C@H](O)c1ccccc1 [Example 178]              EC50            1.26
11  CC(C)[C@@H]1CC[C@@H](C)C[C@@]1(O)C(=O)NCC(=O)Nc1ccccc1 [Example 129]              EC50          0.0069
12  CC(C)[C@@H]1CC[C@@H](C)C[C@@]1(O)C(=O)NC[C@@H](F)c1ccccc1 [Example 180]              EC50           0.003
13  CC(C)[C@@H]1CC[C@@H](C)C[C@@]1(O)C(=O)NCC(=O)OCc1ccccc1 [Example 132]              EC50           0.303
14  CC(C)[C@@H]1CC[C@@H](C)C[C@@]1(O)C(=O)NCCc1ccccc1CCN [Example 53]              EC50          0.0024
15  COC(=O)CCc1ccccc1CCNC(=O)[C@]1(O)C[C@H](C)CC[C@H]1C(C)C [Example 93]              EC50          0.0493
16  CC(C)[C@@H]1CC[C@@H](C)C[C@@]1(O)C(=O)NCCc1cccc(OCC(O)CO)c1 (some centres unmarked) [Example 10]              EC50          0.0214
17  CC(C)[C@@H]1CC[C@@H](C)C[C@@]1(O)C(=O)NCC(=O)c1ccc(F)c(F)c1 [Example 136]              EC50          0.0027
18  COC(=O)CCOc1ccccc1CCNC(=O)[C@]1(O)C[C@H](C)CC[C@H]1C(C)C [Example 75]              EC50           0.084
19  CC(C)[C@@H]1CC[C@@H](C)C[C@@]1(O)C(=O)NCC(O)c1ccccc1O (some centres unmarked) [Example 35]              EC50           0.003
20  CC(=O)NCCOc1ccccc1CCNC(=O)[C@]1(O)C[C@H](C)CC[C@H]1C(C)C [Example 84]              EC50           0.143
21  CC(C)[C@@H]1CC[C@@H](C)C[C@@]1(O)C(=O)NCCc1ccccc1O [Example 116]              EC50          0.0033
22  CC(C)[C@@H]1CC[C@@H](C)C[C@@]1(O)C(=O)NC[C@@H](O)c1cccc(O)c1 [Example 42]              EC50          0.0124
23  CC(C)[C@@H]1CC[C@@H](C)C[C@@]1(O)C(=O)NCC(=O)c1cc(F)cc(F)c1 [Example 138]              EC50          0.0038
24  COC(=O)[C@H](N)COc1cccc(CCNC(=O)[C@]2(O)C[C@H](C)CC[C@H]2C(C)C)c1 [Example 26]              EC50          0.0037
25  CC(C)[C@@H]1CC[C@@H](C)C[C@@]1(O)C(=O)NCC(=O)c1ccc(F)cc1 [Example 135]              EC50          0.0021
26  CC(C)[C@@H]1CC[C@@H](C)C[C@@]1(O)C(=O)NCC(=O)c1ccc(O)cc1O [Example 102]              EC50           0.042
27  CC(C)[C@@H]1CC[C@@H](C)C[C@@]1(O)C(=O)NCCc1ccncc1 [Example 119]              EC50          0.0374
28  CC(C)[C@@H]1CC[C@@H](C)C[C@@]1(O)C(=O)N[C@@H]1COc2ccccc2C1 [Example 94]              EC50          0.0064
29  COC(=O)COc1cccc(CCNC(=O)[C@]2(O)C[C@H](C)CC[C@H]2C(C)C)c1 [Example 64]              EC50          0.0166
30  CC(C)[C@@H]1CC[C@@H](C)C[C@@]1(O)C(=O)NCCc1ccccc1OCC[N+](C)(C)C [Example 11]              EC50           0.148
31  CC(C)[C@@H]1CC[C@@H](C)C[C@@]1(O)C(=O)NCC1OCCc2ccccc21 (single isomer, unassigned) [Example 97]              EC50          0.0111
